Test system: HEK-293T
Experiment: Multiplex assay against HEK293T
Assay type: toxicity, cell-based
Settings: human, 24 h, 10 µM, compound concentration 10 uM, replicate 2
# Population Mitochondria Different-Phenotype (%) per entry
Provide the reading as a plain figure in %.

CN1CCN(c2cc(-c3ccccc3)nc(N)n2)CC1 :: 50
CC(C)COc1ccc(CNC(=O)N(Cc2ccc(F)cc2)C2CCN(C)CC2)cc1 :: 100

Query: Which value of Population Mitochondria Different-Phenotype (%) has been reported for CCCOc1ccc2[nH]cc(C3=CCNCC3)c2n1.Cl in the records?
Result: 63

Query: Return reported Population Mitochondria Different-Phenotype (%); argument: CC[C@@H](C)Nc1nc(C)nc2c(-c3ccc(OC)nc3C)c(C)nn12
Result: 70

Query: What does the data say about its Population Mitochondria Different-Phenotype (%)? Entry: COc1ccccc1N1CCN(C[C@@H](C(=O)NC(C)(C)C)c2ccccc2)CC1.Cl.Cl
Result: 73

====

Test system: Fibroblast
Assay: Multiplex assay against human fibroblast
Type: toxicity, cell-based
Conditions: 48 h, 10 µM, compound concentration 10 uM, replicate 2
endpoint: Population Tubulin-Different-Phenotype (%)
Provide only the numeric value, understood in %.

Cl.N=C(N)NC(=O)Cc1c(Cl)cccc1Cl [GUANFACINE HYDROCHLORIDE] :: 67
Cc1onc(-c2ccccc2Cl)c1C(=O)N(C)c1ccc(Cl)cc1 :: 53
N#Cc1cc(F)cc(-c2nc(-c3ccc(F)cn3)no2)c1 :: 50
O=C(NCCN1CCC(n2c(=O)[nH]c3cc(Cl)ccc32)CC1)c1ccc(F)cc1 [HALOPEMIDE] :: 96

Attention now shifts to the item below.
Query: Look up Population Tubulin-Different-Phenotype (%): CC(C)COc1ccc(CNC(=O)N(Cc2ccc(F)cc2)C2CCN(C)CC2)cc1
Result: 92

====

System: HEK-293T
Assay: Multiplex assay against HEK293T
Format: toxicity, cell-based
Conditions: human, 24 h, 10 µM, compound concentration 10 uM, replicate 1
I'd appreciate it if you marked entries YES when Population Hoechst High Intensity Objects (%) is lower than 5% and NO when it is not.

Answered examples (4):
CC[C@@H](C)Nc1nc(C)nc2c(-c3ccc(OC)nc3C)c(C)nn12 :: NO
O=C1[C@H](Cc2ccc(O)cc2)N2C(=O)CCN(C(=O)NCc3ccccc3)[C@H]2CN1Cc1cccc2ccccc12 :: NO
N#Cc1cc(F)cc(-c2nc(-c3ccc(F)cn3)no2)c1 :: YES
CCCCC1=NC2(CCCC2)C(=O)N1Cc1ccc(-c2ccccc2-c2nnn[nH]2)cc1 :: YES

Next up:
Query: Does the reported Population Hoechst High Intensity Objects (%) of CN(C)C(=O)Cn1cc(-c2ccc(-c3cncc4ccccc34)cc2)cn1 stay below 5%?
Result: NO

====

Tested on: U2OS
Experiment: Multiplex assay against U2OS
Type: toxicity, cell-based
Settings: human, 48 h, 1 µM, compound concentration 1 uM, replicate 1
Measured Population Normal (%) by item
Enter your answer as a number in %; do not include the unit.

Examples from the recorded data:
CC[C@@H](C)Nc1nc(C)nc2c(-c3ccc(OC)nc3C)c(C)nn12 [PEXACERFONT] :: 98
COC[C@@H](c1ccc(C(F)(F)F)cc1)N1CCN(C2(C)CCN(C(=O)c3c(C)ncnc3C)CC2)C[C@@H]1C.O=C(O)/C=C\C(=O)O [VICRIVIROC MALEATE] :: 96
C[C@H](N)COC(=O)[C@@H](CCCCN)NC(=O)Cc1c(-c2ccc3ccccc3c2)[nH]c2c1ccc1ccccc12 :: 98
CN1CCN(c2cc(-c3ccccc3)nc(N)n2)CC1 :: 97
CN(C)C(=O)Cn1cc(-c2ccc(-c3cncc4ccccc34)cc2)cn1 :: 97

Query: I am curious: what Population Normal (%) value has been reported for Cc1cnc(-c2cc(N3CCN(C(=O)CCS(C)(=O)=O)CC3)ncc2Cl)c(C)c1 ?
Result: 99

Query: Entry O=C1[C@H](Cc2ccc(O)cc2)N2C(=O)CCN(C(=O)NCc3ccccc3)[C@H]2CN1Cc1cccc2ccccc12 has what Population Normal (%)?
Result: 96

Query: Name the recorded Population Normal (%) for CN[C@@H](C)C(=O)N[C@H](C(=O)N1CCC[C@H]1C(=O)Nc1snnc1-c1ccccc1)C1CCCCC1 [GDC-0152] .
Result: 91

Query: # get_value(readout='Population Normal (%)', item= CCCCCC(O)/C=C/[C@H]1C(=O)CC(O)C1C/C=C\CCCC(=O)O (some centres undefined) )
Result: 97

====

Tested on: U2OS
Test: Multiplex assay against U2OS
Assay type: toxicity, cell-based
Details: human, 48 h, 1 µM, compound concentration 1 uM, replicate 1
endpoint: Population Membrane Permeable-Phenotype (%)
Kindly answer with a numeric value in %, unit omitted.

C[C@H](N)COC(=O)[C@@H](CCCCN)NC(=O)Cc1c(-c2ccc3ccccc3c2)[nH]c2c1ccc1ccccc12 :: 2
CN(C)C(=O)Cn1cc(-c2ccc(-c3cncc4ccccc34)cc2)cn1 :: 6
CN[C@@H](C)C(=O)N[C@H](C(=O)N1CCC[C@H]1C(=O)Nc1snnc1-c1ccccc1)C1CCCCC1 :: 16

Query: I'd like to know its Population Membrane Permeable-Phenotype (%). The molecule in question is CC[C@@H](C)Nc1nc(C)nc2c(-c3ccc(OC)nc3C)c(C)nn12
Result: 3

Query: Bench note: what Population Membrane Permeable-Phenotype (%) did CCCCC1=NC2(CCCC2)C(=O)N1Cc1ccc(-c2ccccc2-c2nnn[nH]2)cc1 show?
Result: 5

Query: May I ask what Population Membrane Permeable-Phenotype (%) has been recorded for NCCc1cn(S(=O)(=O)c2c(Cl)nc3sccn23)c2ccccc12.O=C(O)C(=O)O ?
Result: 5

Query: Which Population Membrane Permeable-Phenotype (%) is listed for Cc1onc(-c2ccccc2Cl)c1C(=O)N(C)c1ccc(Cl)cc1 ?
Result: 4

Query: Which value of Population Membrane Permeable-Phenotype (%) has been reported for CC(=O)Nc1cccc2c1c(Sc1ccc(Cl)cc1)c(C)n2CC(=O)O in the records?
Result: 6

Query: Population Membrane Permeable-Phenotype (%) for CC(/C=C1\SC(=S)N(CCCC(=O)Nc2ccc(C(=O)O)c(O)c2)C1=O)=C\c1ccccc1 ?
Result: 5

Query: GET /values?readout=Population Membrane Permeable-Phenotype (%)&item= Cc1c(CC(=O)O)c2cccnc2n1Cc1ccc(S(C)(=O)=O)cc1C(F)(F)F
Result: 4

Query: Reported Population Membrane Permeable-Phenotype (%) for O=C1[C@H](Cc2ccc(O)cc2)N2C(=O)CCN(C(=O)NCc3ccccc3)[C@H]2CN1Cc1cccc2ccccc12 : what is it?
Result: 2

Query: Which Population Membrane Permeable-Phenotype (%) reading was recorded for the molecule Cc1noc(-c2ccc(-c3ccc(CC(=O)O)cc3)cc2)c1NC(=O)O[C@H](C)c1ccccc1Cl ?
Result: 6

Query: Query (molecule): CN1CCN(c2cc(-c3ccccc3)nc(N)n2)CC1 ; field requested: Population Membrane Permeable-Phenotype (%)
Result: 5

Query: Need Population Membrane Permeable-Phenotype (%), item COc1ccccc1N1CCN(C[C@@H](C(=O)NC(C)(C)C)c2ccccc2)CC1.Cl.Cl
Result: 5

Query: Return reported Population Membrane Permeable-Phenotype (%); argument: CC(C)c1noc(N2CCC(COc3ccc(-c4ccc(S(C)(=O)=O)cc4)nc3)CC2)n1
Result: 3

Query: Population Membrane Permeable-Phenotype (%); subject: N#Cc1c(Oc2cccc(OS(=O)(=O)CCCC(F)(F)F)c2)cccc1C(F)(F)F
Result: 4

Query: Population Membrane Permeable-Phenotype (%) lookup needed for Cc1cccc(NC(=O)CN2CCC(c3ccccn3)CC2)c1.Cl.Cl , thanks.
Result: 6

Query: Report Population Membrane Permeable-Phenotype (%) for Cl.N=C(N)NC(=O)Cc1c(Cl)cccc1Cl [GUANFACINE HYDROCHLORIDE] please.
Result: 4

====

Test system: U2OS
Test: Multiplex assay against U2OS
Type: toxicity, cell-based
Settings: human, 48 h, 10 µM, compound concentration 10 uM, replicate 2
Measured Population Tubulin-Different-Phenotype (%) accompanies every entry in the list below.
Returns: string containing the numeric result and its unit.

Cc1cccc(NC(=O)CN2CCC(c3ccccn3)CC2)c1.Cl.Cl :: 4%
Cl.N=C(N)NC(=O)Cc1c(Cl)cccc1Cl [GUANFACINE HYDROCHLORIDE] :: 3%
Cl.NCCc1ccc(O)c(O)c1 [DOPAMINE HYDROCHLORIDE] :: 2%
CCc1cc2cc(NS(=O)(=O)c3ccc(C#N)cc3)ccc2n(CC)c1=O :: 7%
CC(/C=C1\SC(=S)N(CCCC(=O)Nc2ccc(C(=O)O)c(O)c2)C1=O)=C\c1ccccc1 :: 0%

Please find the next molecule below.
Query: Given NCCc1cn(S(=O)(=O)c2c(Cl)nc3sccn23)c2ccccc12.O=C(O)C(=O)O , state its recorded Population Tubulin-Different-Phenotype (%).
Result: 42%
